Let's look at some compounds and their measured CC50.
# Method notes: in vitro
# Particulars: YFV CC50

{"columns": ["Compound structure", "Bound operator", "CC50, µM"],
 "data": [
  ["CCOc1ccc2nc(C)cc(Nc3ccc(OC)c(OC)c3)c2c1", "=", 27.8],
  ["CCOC(=O)c1cnc2ccc(OC)cc2c1NCc1ccco1", "=", 22.1],
  ["COc1cccc2c(Nc3ccc4c(c3)OCCO4)cc(C)nc12", "=", 57.2],
  ["CCCOC(=O)c1ccc(Nc2cc(C)nc3ccc(C(=O)OCC)cc23)cc1", "=", 70.1],
  ["CCOC(=O)c1ccc2ncc(C(=O)OCC)c(NCCCOC(=O)C(Cl)(Cl)Cl)c2c1", "=", 60.5],
  ["Cc1cc(C)c2nc(C)cc(Nc3ccc(O)cc3)c2c1", "=", 39.3],
  ["CCOC(=O)c1ccc2nc(C)cc(Nc3ccc(C)cc3C)c2c1", "=", 56.1],
  ["Cc1ccc(Nc2cc(C)nc3ccc(C)cc23)cc1", "=", 35.2],
  ["Cc1ccc2nc3c(c(Nc4ccccc4)c2c1)CCC3", "=", 50.7],
  ["COC(=O)c1ccc(Nc2cc(C)nc3cc(Cl)ccc23)cc1", "=", 53.7],
  ["COc1ccccc1Nc1cc(C)nc2c(C)c(C)cc(N)c12", "=", 52.6],
  ["CCOC(=O)c1cnc2c(OC)cccc2c1NCc1ccccc1", "=", 43.5],
  ["COC(=O)c1ccc2nc(C)cc(Nc3cccc(O)c3)c2c1", "=", 72.3],
  ["CCOC(=O)c1cnc2c(OC)cccc2c1NCc1cccnc1", "=", 51],
  ["COc1ccc2nc(C)cc(Nc3ccc(I)cc3)c2c1", "=", 35.5],
  ["CCc1ccccc1Nc1cc(C)nc2c(OC)cccc12", "=", 57.9],
  ["COc1ccc(Nc2cc(C)nc3c2ccc2ccccc23)cc1", "≥", 75],
  ["COC(=O)c1ccc(Nc2cc(C)nc3ccc(Cl)cc23)cc1", "≥", 75],
  ["Cc1cc(Nc2ccc(C)c(Cl)c2)c2cccc(C)c2n1", "=", 66.2],
  ["Cc1ccc(Nc2c3c(nc4ccc(C)cc24)CCC3)cc1", "=", 43.8]
]}
